# target.of.assay: Acetylcholinesterase (Homo sapiens, UniProt P22303)
# Sequence (P22303 whole entry): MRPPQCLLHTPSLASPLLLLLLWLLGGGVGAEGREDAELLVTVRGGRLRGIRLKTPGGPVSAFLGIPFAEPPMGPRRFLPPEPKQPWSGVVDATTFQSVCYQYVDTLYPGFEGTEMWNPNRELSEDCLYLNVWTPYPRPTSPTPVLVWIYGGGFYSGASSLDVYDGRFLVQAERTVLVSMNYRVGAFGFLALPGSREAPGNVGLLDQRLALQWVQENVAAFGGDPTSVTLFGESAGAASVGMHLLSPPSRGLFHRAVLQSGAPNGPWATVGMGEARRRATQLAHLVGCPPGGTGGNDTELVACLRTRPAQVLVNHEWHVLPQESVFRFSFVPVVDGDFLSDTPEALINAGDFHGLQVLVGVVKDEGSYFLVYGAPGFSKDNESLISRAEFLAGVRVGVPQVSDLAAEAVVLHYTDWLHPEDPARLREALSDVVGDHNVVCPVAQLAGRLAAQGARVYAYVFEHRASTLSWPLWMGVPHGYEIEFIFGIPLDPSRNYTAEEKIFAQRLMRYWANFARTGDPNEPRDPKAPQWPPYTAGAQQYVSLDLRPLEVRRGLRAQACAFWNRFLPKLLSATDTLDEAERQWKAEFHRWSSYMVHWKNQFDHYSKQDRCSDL
# assay.details: Non competitive inhibition of human recombinant AChE using ATChCl as substrate by Lineweaver-Burk plot analysis
measure.name: Ki (nM)
Numbers only, in nM.

Query: Reported Ki, molecule `c1cc[n+](CCCCCCCCCCCC[n+]2cccc3ccccc32)cc1` : ____
Result: 10

----------
For each of the compounds below, state its log10(IC50).
# target.of.assay: UniProt P06276
# Sequence (P06276 whole entry): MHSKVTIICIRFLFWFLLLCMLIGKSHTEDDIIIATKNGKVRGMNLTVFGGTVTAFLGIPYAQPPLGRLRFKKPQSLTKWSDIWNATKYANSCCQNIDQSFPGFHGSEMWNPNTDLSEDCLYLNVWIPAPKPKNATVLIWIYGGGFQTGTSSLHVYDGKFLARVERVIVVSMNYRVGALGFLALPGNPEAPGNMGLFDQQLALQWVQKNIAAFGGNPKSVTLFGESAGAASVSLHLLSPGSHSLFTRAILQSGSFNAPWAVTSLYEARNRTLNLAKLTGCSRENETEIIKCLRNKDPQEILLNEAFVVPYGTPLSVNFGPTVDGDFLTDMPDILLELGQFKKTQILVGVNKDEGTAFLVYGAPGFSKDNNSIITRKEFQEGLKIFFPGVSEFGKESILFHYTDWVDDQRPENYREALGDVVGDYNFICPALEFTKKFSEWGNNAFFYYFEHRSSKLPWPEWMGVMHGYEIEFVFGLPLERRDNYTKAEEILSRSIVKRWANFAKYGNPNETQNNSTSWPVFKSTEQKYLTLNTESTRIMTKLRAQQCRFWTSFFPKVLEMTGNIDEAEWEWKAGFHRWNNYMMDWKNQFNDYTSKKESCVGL
# assay.details: Inhibition of human plasmatic BChE after 5 mins by Ellman's method
Plainly stated, the numbers are log10 of IC50 given in nM.

Examples with answers:
Query: Reported log10(IC50), compound `c1cc[n+](CCCCCCCCCC[n+]2ccc3ccccc3c2)cc1` : ____
Result: 2.57

Query: Reported log10(IC50), compound `c1cc[n+](CCCCCCC[n+]2ccc3ccccc3c2)cc1` : ____
Result: 3.00

Query: Reported log10(IC50), compound `c1cc[n+](CCCCCCC[n+]2cccc3ccccc32)cc1` : ____
Result: 3.34

Query: Reported log10(IC50), compound `c1cc[n+](CCCCCCCCC[n+]2ccc3ccccc3c2)cc1` : ____
Result: 2.54

Below are some compounds; for each one, tell me its log10(IC50).
1. c1cc[n+](CCCCCCCCCCC[n+]2cccc3ccccc32)cc1
2. c1cc[n+](CCCCCCCCCCC[n+]2ccc3ccccc3c2)cc1
3. c1cc[n+](CCCCCCCC[n+]2cccc3ccccc32)cc1
4. c1cc[n+](CCCCCCCC[n+]2ccc3ccccc3c2)cc1
5. c1cc[n+](CCCCCCCCCCCC[n+]2cccc3ccccc32)cc1

Result:
1. 2.95
2. 2.85
3. 3.30
4. 3.89
5. 2.83

Query: Reported log10(IC50), compound `c1cc[n+](CCCCCCCCC[n+]2cccc3ccccc32)cc1` : ____
Result: 3.23
